Tested on: rat glioblastoma (C6)
ASSAY_TEXT: cell viability, glioma C6
Format: cell-based
TEST_CONDITIONS: Rattus norvegicus; Table 1A
READOUT_NAME: IC50 (µM)

* CN1CCN(CCCN2c3ccccc3Sc3ccc(C(F)(F)F)cc32)CC1 [Trifluoperazine] | 14
* CN(C)CCCN1c2ccccc2Sc2ccc(Cl)cc21 [Chlorpromazine] | 22
* OCCN1CCN(CCCN2c3ccccc3Sc3ccc(Cl)cc32)CC1 [Perphenazine] | 22

---

Tested on: HaCat keratinocytes
ASSAY_TEXT: keratinocyte viability, Neutral red, HaCat
Type: cell-based, human
TEST_CONDITIONS: Homo sapiens, HaCaT, single determinations; read-out: IC50 HaCat
pIC50: −log10 of the molar value.
READOUT_NAME: pIC50

* OCCN1CCN(CCCN2c3ccccc3Sc3ccc(Cl)cc32)CC1 | 4.62
